src = ChEMBL document CHEMBL1145115

Listed next: entries and their corresponding IC50.
# TARGET OR SYSTEM: UniProt:O02776
# ASSAY COMMENT: The compound was tested for its ability to inhibit recombinant bovine polyadenosine diphosphoribose glycohydrolase catalytic fragment (rPARG-CF)
READOUT: IC50 (µM)

>  <COMPOUND>
Nc1ncnc2c1ncn2C1O[C@H](COP(=O)(O)OP(=O)(O)OCC2CCCN2)[C@@H](O)[C@H]1O (stereo partly drawn)

>  <READOUT>
IC50

>  <RESULT NUMBER>
63

$$$$
>  <COMPOUND>
CCCCCCNc1ncnc2c1ncn2C1O[C@H](COP(=O)(O)OP(=O)(O)OCC2NC[C@H](O)[C@@H]2O)[C@@H](O)[C@H]1O (stereo partly drawn)

>  <READOUT>
IC50

>  <RESULT NUMBER>
510

$$$$
>  <COMPOUND>
[N-]=[N+]=Nc1nc(N)c2ncn(C3O[C@H](COP(=O)(O)OP(=O)(O)OC[C@H]4NC[C@H](O)[C@@H]4O)[C@@H](O)[C@H]3O)c2n1 (stereo partly drawn)

>  <READOUT>
IC50

>  <RESULT NUMBER>
148

$$$$

----------
# TARGET OR SYSTEM: Poly(ADP-ribose) glycohydrolase (Bos taurus)
# ASSAY COMMENT: The compound was tested for its ability to inhibit bovine thymus polyadenosine diphosphoribose glycohydrolase (bPARG)
We begin with a simple list: items and their reported Log IC50.

>  <MOLECULE>
Nc1ncnc2c1ncn2C1O[C@H](COP(=O)(O)OP(=O)(O)OCC2CCCN2)[C@@H](O)[C@H]1O (some centres undefined)

>  <RESULT OPERATOR>
=

>  <Log IC50, µM>
1.28

$$$$
>  <MOLECULE>
Nc1nc(O)c2ncn(C3O[C@H](COP(=O)(O)OP(=O)(O)OCC4NC[C@H](O)[C@@H]4O)[C@@H](O)[C@H]3O)c2n1 (some centres undefined)

>  <RESULT OPERATOR>
>

>  <Log IC50, µM>
3

$$$$
>  <MOLECULE>
[N-]=[N+]=Nc1nc(N)c2ncn(C3O[C@H](COP(=O)(O)OP(=O)(O)OC[C@H]4NC[C@H](O)[C@@H]4O)[C@@H](O)[C@H]3O)c2n1 (some centres undefined)

>  <RESULT OPERATOR>
=

>  <Log IC50, µM>
2.45

$$$$
>  <MOLECULE>
Nc1ncnc2c1ncn2C1O[C@H](COP(=O)(O)OP(=O)(O)OCC2C[C@@H](O)CN2)[C@@H](O)[C@H]1O (some centres undefined)

>  <RESULT OPERATOR>
=

>  <Log IC50, µM>
0.48

$$$$

----------
# TARGET OR SYSTEM: Poly(ADP-ribose) glycohydrolase (Bos taurus, UniProt O02776)
# Sequence (O02776 whole entry, the tested form may be a part): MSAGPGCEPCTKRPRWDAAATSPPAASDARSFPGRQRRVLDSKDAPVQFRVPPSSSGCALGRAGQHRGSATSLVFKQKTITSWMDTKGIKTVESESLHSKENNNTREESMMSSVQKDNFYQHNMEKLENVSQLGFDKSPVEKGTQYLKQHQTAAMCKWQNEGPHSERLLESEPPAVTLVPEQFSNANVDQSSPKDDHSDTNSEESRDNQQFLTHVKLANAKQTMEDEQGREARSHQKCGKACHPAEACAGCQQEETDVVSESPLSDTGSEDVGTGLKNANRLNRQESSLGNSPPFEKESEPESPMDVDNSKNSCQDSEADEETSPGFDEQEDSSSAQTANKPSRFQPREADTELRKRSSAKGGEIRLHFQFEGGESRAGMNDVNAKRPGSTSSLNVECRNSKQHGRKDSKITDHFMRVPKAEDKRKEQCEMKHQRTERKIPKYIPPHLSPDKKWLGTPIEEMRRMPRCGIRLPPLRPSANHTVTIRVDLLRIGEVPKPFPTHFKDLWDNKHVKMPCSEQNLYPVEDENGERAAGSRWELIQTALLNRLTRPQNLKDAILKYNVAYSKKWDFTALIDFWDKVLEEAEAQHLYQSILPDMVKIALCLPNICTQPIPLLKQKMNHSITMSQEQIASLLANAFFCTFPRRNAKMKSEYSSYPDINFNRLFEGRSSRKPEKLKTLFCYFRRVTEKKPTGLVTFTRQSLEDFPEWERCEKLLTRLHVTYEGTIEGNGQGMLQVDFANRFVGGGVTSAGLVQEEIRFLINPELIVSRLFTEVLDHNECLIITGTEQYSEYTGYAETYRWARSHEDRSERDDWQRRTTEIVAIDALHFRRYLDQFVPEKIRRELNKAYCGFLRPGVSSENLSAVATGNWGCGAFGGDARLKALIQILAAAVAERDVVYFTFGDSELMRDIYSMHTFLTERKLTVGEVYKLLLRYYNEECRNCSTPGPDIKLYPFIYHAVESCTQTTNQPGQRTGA
# ASSAY COMMENT: The compound was tested for its ability to inhibit recombinant bovine polyadenosine diphosphoribose glycohydrolase catalytic fragment (rPARG-CF)
READOUT: IC50 (µM)

>  <MOLECULE>
[N-]=[N+]=Nc1nc2c(N)ncnc2n1C1O[C@H](COP(=O)(O)OP(=O)(O)OC[C@H]2NC[C@H](O)[C@@H]2O)[C@@H](O)[C@H]1O (stereo partly specified)

>  <OUTPUT UNIT>
µM

>  <RESULT NUMBER>
0.44

$$$$
>  <MOLECULE>
NCCCCCCNc1nc2c(N)ncnc2n1C1O[C@H](COP(=O)(O)OP(=O)(O)OC[C@H]2NC[C@H](O)[C@@H]2O)[C@@H](O)[C@H]1O (stereo partly specified)

>  <OUTPUT UNIT>
µM

>  <RESULT NUMBER>
9.5

$$$$
>  <MOLECULE>
Nc1ncnc2c1nc(NCCCCCCNC(=O)C(F)(F)F)n2C1O[C@H](COP(=O)(O)OP(=O)(O)OC[C@H]2NC[C@H](O)[C@@H]2O)[C@@H](O)[C@H]1O (stereo partly specified)

>  <OUTPUT UNIT>
µM

>  <RESULT NUMBER>
570

$$$$
>  <MOLECULE>
Nc1ncnc2c1nc(Sc1ccc(Cl)cc1)n2C1O[C@H](COP(=O)(O)OP(=O)(O)OC[C@H]2NC[C@H](O)[C@@H]2O)[C@@H](O)[C@H]1O (stereo partly specified)

>  <OUTPUT UNIT>
µM

>  <RESULT NUMBER>
120

$$$$
>  <MOLECULE>
Nc1nc2c(ncn2C2O[C@H](COP(=O)(O)OP(=O)(O)OCC3NC[C@H](O)[C@@H]3O)[C@@H](O)[C@H]2O)c(=O)[nH]1 (stereo partly specified)

>  <OUTPUT UNIT>
µM

>  <RESULT NUMBER>
970

$$$$
>  <MOLECULE>
Nc1ncnc2c1ncn2C1O[C@H](COP(=O)(O)OP(=O)(O)OCC2C[C@@H](O)CN2)[C@@H](O)[C@H]1O (stereo partly specified)

>  <OUTPUT UNIT>
µM

>  <RESULT NUMBER>
4.2

$$$$

----------
# TARGET OR SYSTEM: Poly(ADP-ribose) glycohydrolase (Bos taurus)
# ASSAY COMMENT: The compound was tested for its ability to inhibit bovine thymus polyadenosine diphosphoribose glycohydrolase (bPARG)

>  <COMPOUND>
Nc1ncnc2c1ncn2C1O[C@H](COP(=O)(O)OP(=O)(O)OCC2CCCN2)[C@@H](O)[C@H]1O (stereo partly specified)

>  <RESULT OPERATOR>
=

>  <IC50 [µM]>
19.2

$$$$
>  <COMPOUND>
Nc1nc2c(ncn2C2O[C@H](COP(=O)(O)OP(=O)(O)OCC3NC[C@H](O)[C@@H]3O)[C@@H](O)[C@H]2O)c(=O)[nH]1 (stereo partly specified)

>  <RESULT OPERATOR>
>

>  <IC50 [µM]>
1000

$$$$
>  <COMPOUND>
Nc1ncnc2c1ncn2C1O[C@H](COP(=O)(O)OP(=O)(O)OCC2C[C@@H](O)CN2)[C@@H](O)[C@H]1O (stereo partly specified)

>  <RESULT OPERATOR>
=

>  <IC50 [µM]>
3.07

$$$$
>  <COMPOUND>
[N-]=[N+]=Nc1nc2c(N)ncnc2n1C1O[C@H](COP(=O)(O)OP(=O)(O)OC[C@H]2NC[C@H](O)[C@@H]2O)[C@@H](O)[C@H]1O (stereo partly specified)

>  <RESULT OPERATOR>
=

>  <IC50 [µM]>
0.39

$$$$
>  <COMPOUND>
[N-]=[N+]=Nc1nc(N)c2ncn(C3O[C@H](COP(=O)(O)OP(=O)(O)OC[C@H]4NC[C@H](O)[C@@H]4O)[C@@H](O)[C@H]3O)c2n1 (stereo partly specified)

>  <RESULT OPERATOR>
=

>  <IC50 [µM]>
290

$$$$
>  <COMPOUND>
Nc1ncnc2c1ncn2[C@@H]1O[C@H](CO[P@](=O)(O)O[P@@](=O)(O)OC[C@H]2NC[C@H](O)[C@@H]2O)[C@@H](O)[C@H]1O

>  <RESULT OPERATOR>
=

>  <IC50 [µM]>
0.33

$$$$

----------
# TARGET OR SYSTEM: UniProt O02776
# ASSAY COMMENT: The compound was tested for its ability to inhibit recombinant bovine polyadenosine diphosphoribose glycohydrolase catalytic fragment (rPARG-CF)
READOUT: Log IC50 (µM)

>  <MOLECULE>
Nc1ncnc2c1ncn2C1O[C@H](COP(=O)(O)OP(=O)(O)OCC2CCCN2)[C@@H](O)[C@H]1O (stereo partly drawn)

>  <RESULT NUMBER>
1.8

$$$$
>  <MOLECULE>
Nc1ncnc2c1nc(NCCCCCCNC(=O)C(F)(F)F)n2C1O[C@H](COP(=O)(O)OP(=O)(O)OC[C@H]2NC[C@H](O)[C@@H]2O)[C@@H](O)[C@H]1O (stereo partly drawn)

>  <RESULT NUMBER>
2.75

$$$$
>  <MOLECULE>
Nc1ncnc2c1ncn2C1O[C@H](COP(=O)(O)OP(=O)(O)OCC2C[C@@H](O)CN2)[C@@H](O)[C@H]1O (stereo partly drawn)

>  <RESULT NUMBER>
0.623

$$$$
>  <MOLECULE>
CCCCCCNc1ncnc2c1ncn2C1O[C@H](COP(=O)(O)OP(=O)(O)OCC2NC[C@H](O)[C@@H]2O)[C@@H](O)[C@H]1O (stereo partly drawn)

>  <RESULT NUMBER>
2.71

$$$$
>  <MOLECULE>
Nc1ncnc2c1nc(Sc1ccc(Cl)cc1)n2C1O[C@H](COP(=O)(O)OP(=O)(O)OC[C@H]2NC[C@H](O)[C@@H]2O)[C@@H](O)[C@H]1O (stereo partly drawn)

>  <RESULT NUMBER>
2.07

$$$$
>  <MOLECULE>
Nc1nc(O)c2ncn(C3O[C@H](COP(=O)(O)OP(=O)(O)OCC4NC[C@H](O)[C@@H]4O)[C@@H](O)[C@H]3O)c2n1 (stereo partly drawn)

>  <RESULT NUMBER>
2.99

$$$$
>  <MOLECULE>
[N-]=[N+]=Nc1nc(N)c2ncn(C3O[C@H](COP(=O)(O)OP(=O)(O)OC[C@H]4NC[C@H](O)[C@@H]4O)[C@@H](O)[C@H]3O)c2n1 (stereo partly drawn)

>  <RESULT NUMBER>
2.17

$$$$
>  <MOLECULE>
NCCCCCCNc1nc2c(N)ncnc2n1C1O[C@H](COP(=O)(O)OP(=O)(O)OC[C@H]2NC[C@H](O)[C@@H]2O)[C@@H](O)[C@H]1O (stereo partly drawn)

>  <RESULT NUMBER>
0.97

$$$$
